Please go through the items and note down their fluorescence lifetime.
# EXPERIMENTAL_DETAILS: solvent given as SMILES
# CONDITION_DETAILS: in CCOC(C)=O
# unit: ns | format: bare number

Which fluorescence lifetime value belongs to NS(=O)(=O)c1ccc(N2N=C(c3ccc(O)cc3)CC2c2ccccc2)cc1 (configuration not stated) ?
2.27

Sample C(=C\c1ccc(/C=C/c2ccc(N(c3ccccc3)c3ccccc3)cc2)c2nsnc12)/c1ccc(N(c2ccccc2)c2ccccc2)cc1 — what was its fluorescence lifetime?
4.74

// fluorescence lifetime lookup, key: NS(=O)(=O)c1ccc(N2N=C(c3ccc(O)cc3)CC2c2ccc(Br)cc2)cc1 (configuration not stated)
2.18

Would you kindly share the measured fluorescence lifetime for O=C1c2ccccc2-c2cnccc21 ?
2.4

// returns reported fluorescence lifetime for input N#Cc1ccc2c(c1)CCc1nc(-c3ccc([N+](=O)[O-])cc3)c3c(c1-2)CCc1cc(C#N)ccc1-3
1.11

Find the recorded fluorescence lifetime belonging to NS(=O)(=O)c1ccc(N2N=C(c3ccc(O)cc3)CC2c2ccc(F)cc2)cc1 (configuration not stated) and report it.
2.35

Could you share which fluorescence lifetime value was measured for Cc1ccc(C2=C3C=CC(C#Cc4ccccc4)=[N+]3[B-](F)(F)n3c(C#Cc4ccccc4)ccc32)cc1 ?
6.74

State the recorded fluorescence lifetime for this entry: c1ccc(Nc2nc(Nc3ccccc3)nc(Nc3ccc4cc5ccccc5cc4c3)n2)cc1
9

Quick check: fluorescence lifetime of CCC1=C(C)C2=Cc3c(I)c(I)c(I)n3[B-](F)(F)[N+]2=C1C ?
0.236

Can you look up the measured fluorescence lifetime of COc1cc2[nH]c3c(c2cc1OCC(=O)O)CCCC3=O for me?
0.279

Looking for the measured fluorescence lifetime of N#Cc1cccc2ccccc12 , can you help?
11.9

Which fluorescence lifetime is listed for N#CC(C#N)=C(/C=C/c1cc2c3c(c1)CCCN3CCC2)c1ccc2c3c(cccc13)CC2 ?
5.46

Item under review: CC1(C)Nc2cc(Cl)ccc2-c2[nH]c3ccccc3c(=O)c21 . Reported fluorescence lifetime?
7.52

Would you kindly share the measured fluorescence lifetime for COc1ccc2c3c(cccc13)C(=O)c1ccccc1-2 ?
4.1

Fill blank: measured fluorescence lifetime of the molecule CC1=[N+]2C(=C(c3ccccc3)c3ccc(C)n3[B-]2(F)F)C=C1 is ____.
1.71

Can you share its fluorescence lifetime? I mean this molecule: Cc1ccccc1C1=C2C=c3c(oc4ccc(F)cc34)=[N+]2[B-](F)(F)n2c1cc1c3cc(F)ccc3oc12
4.22

Find the recorded fluorescence lifetime belonging to CC1=[N+]2C(=C(NCc3ccccc3)c3ccc(C)n3[B-]2(F)F)C=C1c1cc2n(c1)[B-](F)(F)[N+]1=CC=CC1=C2c1c(C)cc(C)cc1C and report it.
0.54

The reported numbers originate from the Deep4Chem optical property database.
